Here the recorded M.I.C. is given for each entry.
- System: E. coli DC2 (permeable)
- protocol_summary: In vitro activity, dilution in liquid medium, M.I.C. on E. coli DC2 (permeable)
- Assay type: cell-based
- condition_notes: code 250HT6, incubation twenty-four hours at 37° C.
Return type: number; implicit unit µg/mL.

Please review the following examples before continuing.
| compound | property_measured | measured |
| --- | --- | --- |
| [NH-]C(=O)[C@H]1CC[C@@H]2CN1C(=O)N2OS(=O)(=O)[O-].[Na+].[Na+] (relative stereo) | M.I.C. | 40 |
| NC(=O)CNC(=O)[C@H]1CC[C@@H]2CN1C(=O)N2OS(=O)(=O)[O-].[Na+] (relative stereo) | M.I.C. | 80 |
| O=C(NCc1ccncc1)[C@H]1CC[C@@H]2CN1C(=O)N2OS(=O)(=O)[O-].[Na+] (relative stereo) | M.I.C. | 20 |

State the recorded M.I.C. for this entry: O=C(NCc1cccnc1)[C@H]1CC[C@@H]2CN1C(=O)N2OS(=O)(=O)[O-].[Na+] (relative stereo)
20

====

- System: S. Pyogenes A561
- protocol_summary: In vitro activity, dilution in liquid medium, M.I.C. on S. Pyogenes A561
- Assay type: cell-based
- condition_notes: S. Pyogenes A561, code 02A1UC1, incubation twenty-four hours at 37° C.
property_measured: M.I.C.

Please review the following examples before continuing.
| compound | property_measured | measured |
| --- | --- | --- |
| NC(=O)CNC(=O)[C@H]1CC[C@@H]2CN1C(=O)N2OS(=O)(=O)[O-].[Na+] (relative stereo) | M.I.C. | 160 µg/mL |
| O=C(NCc1ccncc1)[C@H]1CC[C@@H]2CN1C(=O)N2OS(=O)(=O)[O-].[Na+] (relative stereo) | M.I.C. | >80 µg/mL |
| [NH-]C(=O)[C@H]1CC[C@@H]2CN1C(=O)N2OS(=O)(=O)[O-].[Na+].[Na+] (relative stereo) | M.I.C. | >160 µg/mL |
| O=C(NCc1ccccc1)[C@H]1CC[C@@H]2CN1C(=O)N2OS(=O)(=O)[O-].[Na+] (relative stereo) | M.I.C. | 1.2 µg/mL |

State the recorded M.I.C. for this entry: O=C(NCc1cccnc1)[C@H]1CC[C@@H]2CN1C(=O)N2OS(=O)(=O)[O-].[Na+] (relative stereo)
>80 µg/mL

====

- Test system: E. coli (hyperpermeable)
- protocol_summary: In vitro activity, dilution in liquid medium, M.I.C. on E. coli (hyperpermeable)
- Format: cell-based
- condition_notes: code 250IP5, incubation twenty-four hours at 37° C.
property_measured: M.I.C. (µg/mL)
Return type: number; implicit unit µg/mL.

| molecule | unit_name | M.I.C. |
| --- | --- | --- |
| O=C(NCc1ccncc1)[C@H]1CC[C@@H]2CN1C(=O)N2OS(=O)(=O)[O-].[Na+] (relative stereo) | µg/mL | 2.5 |

We next turn to a different molecule, shown below.
State the recorded M.I.C. for this entry: NC(=O)CNC(=O)[C@H]1CC[C@@H]2CN1C(=O)N2OS(=O)(=O)[O-].[Na+] (relative stereo)
20

====

- System: E. coli (hyperpermeable)
- protocol_summary: In vitro activity, dilution in liquid medium, M.I.C. on E. coli (hyperpermeable)
- Format: cell-based
- condition_notes: code 250IP5, incubation twenty-four hours at 37° C.
property_measured: M.I.C. (µg/mL)
Return type: number; implicit unit µg/mL.

| molecule | M.I.C. / µg/mL |
| --- | --- |
| O=C(NCc1cccnc1)[C@H]1CC[C@@H]2CN1C(=O)N2OS(=O)(=O)[O-].[Na+] (relative stereo) | 5 |
| [NH-]C(=O)[C@H]1CC[C@@H]2CN1C(=O)N2OS(=O)(=O)[O-].[Na+].[Na+] (relative stereo) | 10 |

We next turn to a different molecule, shown below.
State the recorded M.I.C. for this entry: O=C(NCc1ccccc1)[C@H]1CC[C@@H]2CN1C(=O)N2OS(=O)(=O)[O-].[Na+] (relative stereo)
20
